- test_protocol: Intrinsic cytotoxicity against MDCK2 cells over-expressing human ABCG2 incubated for 72 hrs by MTT assay
- Type: ADME, cell-based, Canis lupus familiaris, MDCK-II
- test_conditions: dog
Can you tell me GI50 at 72 h for the items I'm about to list?
One number for each entry, in µM.

Sample records with GI50 at 72 h:
molecule | GI50 at 72 h (µM)
CC(=O)Nc1cccc(Nc2nc(-c3ccccc3)nc3ccccc23)c1 | 12.9
N#Cc1ccc(Nc2nc(-c3ccccc3)nc3ccccc23)cc1 | 7.96
Oc1ccc(Nc2nc(-c3ccccc3)nc3ccccc23)cc1 | 12.2
COc1ccc2c3c([nH]c2c1)[C@H](CC(C)C)N1C(=O)[C@H](CCC(=O)OC(C)(C)C)NC(=O)[C@@H]1C3 | 11.1
Ic1ccc(Nc2nc(-c3ccccc3)nc3ccccc23)cc1 | 9.25
Cc1cccc(Nc2nc(-c3ccccc3)nc3ccccc23)c1 | 12.8
COc1ccc(Nc2nc(-c3ccccc3)nc3ccccc23)cc1OC | 22.5
Clc1ccc(Nc2nc(-c3ccccc3)nc3ccccc23)cc1 | 6.75
Ic1cccc(Nc2nc(-c3ccccc3)nc3ccccc23)c1 | 4.75
O=[N+]([O-])c1cc(Nc2nc(-c3ccccc3)nc3ccccc23)ccc1O | 52.4

Quick request: GI50 at 72 h for each listed item, please.
1. Fc1cccc(Nc2nc(-c3ccccc3)nc3ccccc23)c1
2. Fc1ccc(Nc2nc(-c3ccccc3)nc3ccccc23)cc1

result:
[17.2, 29]

* * *

Can you tell me selectivity ratio for the items I'm about to list?
- Tested on: ABCG2
- test_protocol: Therapeutic index, ratio of GI50 for intrinsic cytotoxicity against MDCK2 cells over-expressing human ABCG2 top IC50 for inhibition of c-terminal GFP-tagged human ABCG2 expressed in MDCK2 cells
- Type: toxicity, cell-based
- test_conditions: dog, read-out: RatioGI50
Give bare numbers.

Quick request: selectivity ratio for each listed item, please.
1. CC(=O)Nc1cccc(Nc2nc(-c3ccccc3)nc3ccccc23)c1
2. COc1ccc(Nc2nc(-c3ccccc3)nc3ccccc23)cc1OC
3. N#Cc1ccc(Nc2nc(-c3ccccc3)nc3ccccc23)cc1
4. Ic1ccc(Nc2nc(-c3ccccc3)nc3ccccc23)cc1
5. Clc1ccc(Nc2nc(-c3ccccc3)nc3ccccc23)cc1
6. Fc1ccc(Nc2nc(-c3ccccc3)nc3ccccc23)cc1

result:
1: 46.4; 2: 148; 3: 113; 4: 15.1; 5: 8.13; 6: 27.4

* * *

- target_system: UniProt Q9UNQ0
- Sequence (Q9UNQ0 whole entry): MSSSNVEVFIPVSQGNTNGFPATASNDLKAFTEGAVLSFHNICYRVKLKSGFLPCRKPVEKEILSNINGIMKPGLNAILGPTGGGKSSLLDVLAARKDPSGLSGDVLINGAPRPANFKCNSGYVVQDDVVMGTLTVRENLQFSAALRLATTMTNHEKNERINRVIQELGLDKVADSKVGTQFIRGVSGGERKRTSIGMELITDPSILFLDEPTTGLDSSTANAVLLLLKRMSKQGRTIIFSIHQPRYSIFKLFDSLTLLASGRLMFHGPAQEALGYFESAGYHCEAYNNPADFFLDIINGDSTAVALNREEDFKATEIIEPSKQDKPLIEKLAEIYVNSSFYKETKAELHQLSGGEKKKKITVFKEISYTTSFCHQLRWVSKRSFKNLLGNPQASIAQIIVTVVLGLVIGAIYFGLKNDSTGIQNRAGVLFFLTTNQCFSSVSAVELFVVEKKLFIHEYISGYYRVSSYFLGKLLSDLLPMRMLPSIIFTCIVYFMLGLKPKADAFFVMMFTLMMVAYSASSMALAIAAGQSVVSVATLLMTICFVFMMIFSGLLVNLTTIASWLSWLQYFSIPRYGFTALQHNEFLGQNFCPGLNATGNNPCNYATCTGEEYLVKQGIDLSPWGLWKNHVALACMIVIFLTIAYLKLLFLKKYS
- test_protocol: Inhibition of c-terminal GFP-tagged human ABCG2 expressed in MDCK2 cells preincubated for 30 mins before Pheophorbide A addition by Pheophorbide A assay
- Assay type: cell-based
measured_parameter: pIC50
Give bare numbers, as −log10 of the molar value.

Quick request: pIC50 for each listed item, please.
1. C#Cc1cccc(Nc2nc(-c3ccccc3)nc3ccccc23)c1
2. O=C(Nc1ccccc1C(=O)Nc1ccc(CCN2CCc3ccccc3C2)cc1)c1cnc2ccccc2c1
3. COc1ccc(Nc2nc(-c3ccccc3)nc3ccccc23)cc1F
4. O=[N+]([O-])c1cc(Nc2nc(-c3ccccc3)nc3ccccc23)ccc1O
5. N#Cc1ccc(Nc2nc(-c3ccccc3)nc3ccccc23)cc1
6. CC(=O)Nc1cccc(Nc2nc(-c3ccccc3)nc3ccccc23)c1
7. Fc1cccc(Nc2nc(-c3ccccc3)nc3ccccc23)c1

result:
[6.29, 6.13, 6.16, 6.95, 7.07, 6.65, 6.39]

Quick request: pIC50 for each listed item, please.
1. COc1cc(Nc2nc(-c3ccccc3)nc3ccccc23)ccc1Br
2. Oc1ccc(Nc2nc(-c3ccccc3)nc3ccccc23)cc1

result:
1: 6.69; 2: 6.52

Reference for the values: ChEMBL document CHEMBL4425096
